Cited source for all entries: ChEMBL document CHEMBL4513216

test system: Plasmodium berghei; assay: Screen against P. berghei liver stage (PbLuc), transformed with Luciferase, at 2uM; assay type: functional, HepG2; details: tested at 2 uM
Out of some 68,000 compounds screened, about 2,700 (4%) showed an effect of 50% or more. Shown is part of a subset that was picked to be rich in strong results.
measurement kind: INHIBITION (%)
Express it in %; write the number only.

Below, 4 molecules whose answers are already recorded.
| molecule | INHIBITION / % |
| --- | --- |
| CC(C)c1nnc2n1CCN(C(=O)c1cc3cc(F)ccc3[nH]1)C2 | 31.57 |
| Cc1csc(CNc2cnn(CC(C)C)c2)n1 | 3.58 |
| Cc1cnn(CC2CCCN2CC(=O)N(C)CCC#N)c1 (stereo not given) | -31.3 |
| Cc1cc(-c2cnc(NCc3ccc4c(c3)OCO4)nc2C(C)C)on1 | -0.95 |

Now for a further molecule.
Asked: Name the reported INHIBITION value associated with the molecule O=C(N1CCCC(n2cncn2)C1)C1(c2ccc(Cl)cc2)CCC1 (stereo not given)
Given back: 45.83

----------
system: Plasmodium berghei; test: Screen against P. berghei liver stage (PbLuc), transformed with Luciferase, at 2uM; type: functional, HepG2; conditions: tested at 2 uM
Screen size: about 68,000 compounds; about 2,700 (4%) showed an effect of 50% or more. Shown is part of a subset that was picked to be rich in strong results.
measurement kind: INHIBITION
Answer with the figure and its unit, nothing else.

| compound | INHIBITION |
| --- | --- |
| Cc1ccc2c(c1)C(=O)NCC1(CCN(C(=O)c3scnc3C)CC1)O2 | -2.31% |
| COc1ccc(C2=Nn3c(CCN)nnc3-c3ccccc3C2)cc1 | 54.73% |

Asked: Name the reported INHIBITION value associated with the compound `COc1ccccc1CN1CC[C@H]2C[C@@H](C(=O)N3CCCC3)O[C@H]2C1`
Given back: 52.4%

Asked: Name the reported INHIBITION value associated with the compound `Cc1ccc2c(c1)C(=O)NCC1(CCN(C(=O)c3cc(C)no3)CC1)O2`
Given back: 9.51%

Asked: Name the reported INHIBITION value associated with the compound `O=C([C@@H]1C[C@@H]2CCN(C3CCOCC3)C[C@H]2O1)N1CCCC1`
Given back: -26.64%

Asked: Name the reported INHIBITION value associated with the compound CNc1nc(C)cc(NC2CCCN(C3Cc4ccccc4C3)C2)n1 (configuration not stated)
Given back: 58.03%

Asked: Name the reported INHIBITION value associated with the compound N#CCCN(C(=O)CN1CCCC1c1ccsc1)c1ccccc1 (configuration not stated)
Given back: -37.2%

Asked: Name the reported INHIBITION value associated with the compound `O=C(Cc1cnc(-c2c(Cl)cccc2Cl)s1)N1CCC2(CC1)OCCO2`
Given back: -6.29%

Asked: Name the reported INHIBITION value associated with the compound CC(C)c1nnc(NC(=O)C2CSCN2C(=O)C2CCC2)s1 (configuration not stated)
Given back: -52.32%

Asked: Name the reported INHIBITION value associated with the compound `CCNC(=O)[C@@H]1C[C@@H](NC(=O)c2ccsc2)CN1CCCSC`
Given back: 68.61%

Asked: Name the reported INHIBITION value associated with the compound `O=C([C@@H]1C[C@@H]2CCN(CCc3ccccc3)C[C@H]2O1)N1CCCC1`
Given back: 14.94%

Asked: Name the reported INHIBITION value associated with the compound CCOc1nnc(CN2CCN(CCOC)C(CC)C2)s1 (configuration not stated)
Given back: -8.54%

Asked: Name the reported INHIBITION value associated with the compound CNc1cc(C)nc(NC2CCCN(C3Cc4ccccc4C3)C2)n1 (configuration not stated)
Given back: 8.26%

Asked: Name the reported INHIBITION value associated with the compound `CC(=O)N1CCN(C(=O)Cc2cnc(-c3c(Cl)cccc3Cl)s2)CC1`
Given back: 25.61%

Asked: Name the reported INHIBITION value associated with the compound O=C(c1ccoc1)N1CCCC2(CCC(=O)N2Cc2ccncc2)C1 (configuration not stated)
Given back: 3.56%

Asked: Name the reported INHIBITION value associated with the compound `Cc1nccn1CCC(=O)N1CCC2(CCC(=O)N(CC3CC3)C2)CC1`
Given back: -63.27%

Asked: Name the reported INHIBITION value associated with the compound `O=C(Cn1nc(-c2ccc(F)cc2)oc1=O)NCCc1ccccc1`
Given back: 20.57%

Asked: Name the reported INHIBITION value associated with the compound Cc1ccnc(N2CCC(OCCN3CCCCC3)C2)n1 (configuration not stated)
Given back: 12.29%

Asked: Name the reported INHIBITION value associated with the compound `COc1ccc(C2=Nn3c(CCCN)nnc3-c3ccccc3C2)cc1`
Given back: 6.9%

Asked: Name the reported INHIBITION value associated with the compound `NS(=O)(=O)CCNC(=O)c1nnn(-c2ccccc2)c1C1CC1`
Given back: 2.39%

Asked: Name the reported INHIBITION value associated with the compound `Cc1cc(-c2nc(-c3cccc(CN4CCOCC4)c3)no2)no1`
Given back: 53.19%

Asked: Name the reported INHIBITION value associated with the compound `Cc1ccc2c(c1)C(=O)NCC1(CCN(C(=O)c3ccccn3)CC1)O2`
Given back: 38.12%

----------
test system: Plasmodium berghei; assay: Screen against P. berghei liver stage (PbLuc), transformed with Luciferase, at 2uM; type: functional, HepG2; settings: tested at 2 uM
Out of some 68,000 compounds screened, about 2,700 (4%) showed an effect of 50% or more. Many of the other results were omitted from the sample, so strong results are more common in it than they were.
Rule: INHIBITION below -10% gives Satisfied, anything at or above gives Not satisfied.

| compound | assigned label |
| --- | --- |
| CN(C)C1CCN(C(=O)NCc2ccccc2Cn2cncn2)CC1 | Not satisfied |
| CCC1=NC(SCC(=O)c2ccccc2)c2cc(CC)sc2N1 (stereo not drawn) | Not satisfied |
| NC(=O)C1CCN(C(=O)NCc2ccccc2Cn2cncn2)CC1 | Not satisfied |
| COc1ccc2c(c1)CC(NCCCn1cc(C)cn1)CC2 (stereo not drawn) | Not satisfied |
| O=C(Nc1cccc2c1CCCC2)c1cccnc1N1CCCNCC1 | Not satisfied |
| COc1c(Cl)cccc1NCc1csc(NC(C)=O)n1 | Satisfied |
| CCc1c(C(=O)N2CCOC(C)(C)C2)cnn1-c1ccccn1 | Not satisfied |
| COc1ccccc1N1CCN(CC[C@H](O)c2ccccc2)CC1=O | Satisfied |
| CN(C)Cc1cc(=O)n2c(n1)CN(C(=O)c1ccc[nH]1)CCC2 | Satisfied |
| CS(=O)(=O)Cc1noc(CN2CCc3c(Cl)cccc3C2)n1 | Not satisfied |

Asked: Is INHIBITION strictly under -10% for the entry `Cc1nnc([C@@H]2C[C@H]3CN(C(=O)c4c(C)noc4C)C[C@H]3O2)[nH]1` ?
Given back: Not satisfied

Asked: Is INHIBITION strictly under -10% for the entry CCC1=NC(SCC(=O)c2ccc(Cl)cc2)c2cc(CC)sc2N1 (stereo not drawn) ?
Given back: Satisfied

Asked: Is INHIBITION strictly under -10% for the entry `O=C(CCNC(=O)C1CCCC1)NCc1ccccc1Cn1cncn1` ?
Given back: Satisfied

----------
system: Plasmodium berghei; test: Screen against P. berghei liver stage (PbLuc), transformed with Luciferase, at 2uM; format: functional, HepG2; conditions: tested at 2 uM
Hit rate of the full screen: of about 68,000 compounds, about 2,700 (4%) showed an effect of 50% or more. The sample holds strong results, similar compounds and a random draw of the others, so the mix is not that of the screen.
measurement kind: INHIBITION (%)
Express it in %; write the number only.

Asked: Name the reported INHIBITION value associated with the molecule CCOC(=O)C1CCN(C(=O)CN2CCCC2c2ccccc2C)CC1 (stereo unspecified)
Given back: -16.19

----------
system: Plasmodium berghei; assay: Screen against P. berghei liver stage (PbLuc), transformed with Luciferase, at 2uM; assay type: functional, HepG2; details: tested at 2 uM
The campaign covered roughly 68,000 compounds. About 2,700 (4%) showed an effect of 50% or more. The list comes from a sample in which strong results are over-represented; it also holds close analogues and randomly drawn compounds.
Decision: INHIBITION >= 20% yields class 1, all other cases yield class 0.

| compound | assigned label |
| --- | --- |
| O=C(CCS(=O)(=O)C1CCCC1)NCc1ccccc1Cn1cncn1 | class 1 |

Asked: Is it the case that `COc1ccc2[nH]cc(C(=O)CNc3nc(C)cs3)c2c1` has INHIBITION reaching or exceeding 20%?
Given back: class 1

Asked: Is it the case that `NC(=O)CSCCC(=O)NCC1CC1` has INHIBITION reaching or exceeding 20%?
Given back: class 1

Asked: Is it the case that COCC1CC2(CCN(C(=O)c3oc4ccccc4c3C)CC2)CO1 (stereo unspecified) has INHIBITION reaching or exceeding 20%?
Given back: class 0
